- System: Staphylococcus aureus
- MEASUREMENT_DESCRIPTION: Antibacterial activity against Staphylococcus aureus NCTC 8325 harboring genetic deletion of mepRA gene and carrying expression vector pG154 after 16 to 20 hrs by broth microdilution method in presence of anhydrous tetracycline
- Assay type: functional
Could you please report measured MIC for the items listed next?
# do not omit the unit; it follows the number

*Q* Which measured MIC value corresponds to c1cc2cc(-c3ccc4cc(C5=NCCN5)[nH]c4c3)[nH]c2cc1C1=NCCN1 ?
*A* 0.5 µg/mL

*Q* Another: Cn1cc(NC(=O)c2cc(NC(=O)c3cc(NC=O)cn3C)cn2C)cc1C(=O)NCCC(=N)N
*A* 50 µg/mL

*Q* Another: c1cc2cc(-c3ccc(-c4cc5ccc(C6=NCCN6)cc5[nH]4)cc3)[nH]c2cc1C1=NCCN1
*A* 0.5 µg/mL

*Q* Another: c1cc2cc(-c3ccc4cc(-c5ccc6oc(C7=NCCN7)cc6c5)[nH]c4c3)[nH]c2cc1C1=NCCN1
*A* 0.5 µg/mL

*Q* Another: c1cc2cc(-c3ccc(-c4cc5ccc(C6=NCCCN6)cc5[nH]4)cc3)[nH]c2cc1C1=NCCCN1
*A* 0.5 µg/mL

*Q* Another: C(=C\c1cc2ccc(C3=NCCN3)cc2[nH]1)/c1cc2ccc(C3=NCCN3)cc2[nH]1
*A* 1 µg/mL

###

- MEASUREMENT_DESCRIPTION: Dissociation constant, pKa of the compound
- Type: physicochemical
Could you please report measured pKa for the items listed next?
Please give only the number in your answer, with no unit.

*Q* Which measured pKa value corresponds to c1cc2cc(-c3ccc(-c4cc5ccc(C6=NCCCN6)cc5[nH]4)cc3)[nH]c2cc1C1=NCCCN1 ?
*A* 12.8

*Q* Another: C(=C\c1cc2ccc(C3=NCCN3)cc2[nH]1)/c1cc2ccc(C3=NCCN3)cc2[nH]1
*A* 9.6

*Q* Another: N=C(N)c1ccc(-c2cc3ccc(C(=N)N)cc3[nH]2)cc1
*A* 11.6

*Q* Another: c1cc2cc(-c3ccc(-c4cc5ccc(C6=NCCN6)cc5[nH]4)cc3)[nH]c2cc1C1=NCCN1
*A* 9.6

###

- System: Staphylococcus aureus
- MEASUREMENT_DESCRIPTION: Antibacterial activity against Staphylococcus aureus NCTC 8325 carrying expression vector pG154 with mepA gene after 16 to 20 hrs by broth microdilution method
- Assay type: functional
ASSAY_READOUT: MIC (µg/mL)
Only the number, expressed in µg/mL, is required.

*Q* Which measured MIC value corresponds to c1cc2cc(-c3ccc(-c4cc5ccc(C6=NCCCN6)cc5[nH]4)cc3)[nH]c2cc1C1=NCCCN1 ?
*A* 0.5

*Q* Another: C(=C\c1cc2ccc(C3=NCCN3)cc2[nH]1)/c1cc2ccc(C3=NCCN3)cc2[nH]1
*A* 1

*Q* Another: Cn1cc(NC(=O)c2cc(NC(=O)c3cc(NC=O)cn3C)cn2C)cc1C(=O)NCCC(=N)N
*A* 50

*Q* Another: c1cc2cc(-c3ccc4cc(-c5ccc6oc(C7=NCCN7)cc6c5)[nH]c4c3)[nH]c2cc1C1=NCCN1
*A* 1

*Q* Another: c1cc2cc(-c3ccc4cc(C5=NCCN5)[nH]c4c3)[nH]c2cc1C1=NCCN1
*A* 0.5

*Q* Another: c1cc2cc(-c3ccc(-c4cc5ccc(C6=NCCN6)cc5[nH]4)cc3)[nH]c2cc1C1=NCCN1
*A* 0.5
